Give Writhes, quantity (Agent) for every item shown.
system: outbred mice; test: acetic acid induced writhing test (visceral pain model); format: in vivo; conditions: 10 mg/kg, once intragastrically 1 h before 0.75% acetic acid i.p.; writhes during 3 min
Numbers only.

Quick one: give me Writhes, quantity (Agent) for each item below, same order please.
1. CC1CCC2C(C1)OC(c1ccc([N+](=O)[O-])s1)CC2(C)O (stereo not shown)
2. CC1CCC2C(C1)OC(c1cccs1)CC2(C)O (stereo not shown)
3. CC1CCC2C(C1)OC(c1cc(Br)cs1)CC2(C)O (stereo not shown)
4. Cc1ccc(C2CC(C)(O)C3CCC(C)CC3O2)s1 (stereo not shown)
5. O=C(O)Cc1ccccc1Nc1c(Cl)cccc1Cl [Sodium diclofenac, reference compound]
6. CC1CCC2C(C1)OC(c1ccc(Br)s1)CC2(C)O (stereo not shown)
7. Cc1ccsc1C1CC(C)(O)C2CCC(C)CC2O1 (stereo not shown)

-- reply
1: 7.5; 2: 4.3; 3: 3.6; 4: 6.6; 5: 5.0; 6: 6.3; 7: 7.0
